Target: Aldo-keto reductase family 1 member B1 (Bos taurus, UniProt P16116)

mol | operatorSymbol | IC50 (µM)
O=C1S/C(=C\c2ccc(OCc3ccccc3)cc2)C(=O)N1CC(O)(O)C(F)(F)F | > | 9
COc1cccc(/C=C2\SC(=O)N(CC(=O)C(F)(F)F)C2=O)c1 | = | 23.3
COc1ccc(/C=C2\SC(=O)N(CC(=O)C(F)(F)F)C2=O)cc1 | = | 17.4
O=C1S/C(=C\c2ccc(Oc3ccccc3)cc2)C(=O)N1CC(O)(O)C(F)(F)F | = | 8.3
COc1cccc(/C=C2\SC(=O)N(CC(O)(O)C(F)(F)F)C2=O)c1 | = | 23.3
O=C1S/C(=C\c2ccc(O)cc2)C(=O)N1CC(O)(O)C(F)(F)F | = | 3
